- assay-overview: chemical genetic growth profiling, strain panel (AID 1159580);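 also: tested at 20 µM; growth read once vehicle control cultures reached saturation at 30 °C; 1 = growth at the plate median or of vehicle wells; lower values mean less growth of the strain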
- stated-conditions: S. cerevisiae deletion strains, growth OD, locus YOR136W, strain idh2, stronger effect = lower value
The campaign covered roughly 5,500 compounds. About 2,000 (36%) were called active. Another 18% or so got no clear call; they are omitted. Some of the results follow.
Here, each record is paired with measured normalized growth data.
reported-property: normalized growth

INSERT INTO measurements (molecule, reported_property, numeric_result) VALUES
  ('CC1=C(C(=O)O)N2C(=O)[C@@H](NC(=O)[C@H](N)C3=CCC=CC3)C2SC1 (stereo not given in full)', 'normalized growth', 0.984),
  ('CCOc1ccc(Cc2nccc3cc(OCC)c(OCC)cc23)cc1OCC', 'normalized growth', 0.974),
  ('CCN(CC)CCNC(=O)COc1ccc(OC)cc1', 'normalized growth', 1.01),
  ('Cn1cnc([N+](=O)[O-])c1Sc1ncnc2nc[nH]c12', 'normalized growth', 0.979),
  ('CC(=O)O[C@@H]1CC2C(C)(C)C(=O)[C@@H]3O[C@@H]3[C@]2(C)C2CC[C@]3(C)C(=CC(=O)O[C@H]3c3ccoc3)[C@@]21C (stereo not given in full)', 'normalized growth', 0.99),
  ('COc1c2occc2cc2ccc(=O)oc12', 'normalized growth', 0.974),
  ('COc1c(O)cc(O)cc1O', 'normalized growth', 0.991),
  ('CC1(C)S[C@@H]2[C@H](NC(=O)COc3ccccc3)C(=O)N2[C@H]1C(=O)O', 'normalized growth', 1.03),
  ('c1coc(CNc2ncnc3nc[nH]c23)c1', 'normalized growth', 0.996),
  ('CC(C(=O)O)c1ccc(N2Cc3ccccc3C2=O)cc1 (stereo not given)', 'normalized growth', 0.991),
  ('CCNc1nc(Cl)nc(NC(C)C)n1', 'normalized growth', 1.02),
  ('CN(C)c1nc(N(C)C)nc(N(C)C)n1', 'normalized growth', 1.02),
  ('COc1cc2ccc(=O)oc2c2ccoc12', 'normalized growth', 0.971),
  ('CNC(=O)CSP(=S)(OC)OC', 'normalized growth', 1.01),
  ('CCCCC/C=C\C/C=C\C/C=C\C/C=C\CCCC(=O)O', 'normalized growth', 0.965),
  ('NCCS', 'normalized growth', 1.02),
  ('CC(C)=CCC1=C(O)c2ccccc2C(=O)C1=O', 'normalized growth', 0.928),
  ('COc1cc(O)c(C)c(O)c1', 'normalized growth', 1.02),
  ('COc1cc(O)c(C(C)=O)c(OC)c1', 'normalized growth', 1),
  ('C[C@]12C=CC(=O)C=C1CCC1C2CC[C@]2(C)C(=O)CCC12 (stereo not given in full)', 'normalized growth', 0.987),
  ('N#C/C(=C\c1ccc(O)cc1)C(=O)O', 'normalized growth', 1),
  ('COc1ccc(Cc2nccc3cc(OC)c(OC)cc23)cc1OC', 'normalized growth', 0.998),
  ('CN1CCN(C(c2ccccc2)c2ccccc2)CC1', 'normalized growth', 0.971),
  ('O=C(O)c1cc2cc(Cl)ccc2[nH]1', 'normalized growth', 0.992),
  ('CCCC(=O)Nc1ncnc2c1ncn2C1O[C@@H]2COP(=O)(O)O[C@H]2[C@H]1OC(=O)CCC (stereo not given in full)', 'normalized growth', 1.02);
